biological target: human JAK3 (a.a. 781-1124) (Homo sapiens); construct: JAK3 (a.a. 781-1124); His tag (N); made in house; host or cells: insect cells (baculovirus); test: In vitro JAK kinase assay (HTRF, phosphorylation of a biotinylated peptide), JAK3; type: biochemical; conditions: Table D1
Sequence (P52333 781-1124): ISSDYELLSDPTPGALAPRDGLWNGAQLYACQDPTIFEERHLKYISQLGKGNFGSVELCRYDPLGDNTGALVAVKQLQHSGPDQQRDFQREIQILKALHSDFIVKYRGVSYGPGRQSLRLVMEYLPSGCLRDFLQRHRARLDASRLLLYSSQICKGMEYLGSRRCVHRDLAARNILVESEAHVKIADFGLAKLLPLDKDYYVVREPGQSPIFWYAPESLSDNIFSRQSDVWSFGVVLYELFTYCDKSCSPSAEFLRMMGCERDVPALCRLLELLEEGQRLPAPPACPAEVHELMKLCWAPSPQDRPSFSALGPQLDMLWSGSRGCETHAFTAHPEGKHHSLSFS
pIC50: −log10 of the molar value.
compounds and their reported pIC50

compound | study.system | pIC50
Cc1cc(C(=O)N2CC(CC(=O)Nc3ccc4cc3CCc3cncc(c3)Nc3ncc(Cl)c(n3)N4)C2)no1 [Example D143, bis(trifluoroacetate)] | human JAK3 (a.a. 781-1124) (Homo sapiens) | < 6.00
Cc1occc1NC(=O)N1CCC(CCOc2ccc3cc2CCc2cncc(c2)Nc2ncc(Cl)c(n2)N3)CC1 [Example D164, bis(trifluoroacetate)] | human JAK3 (a.a. 781-1124) (Homo sapiens) | < 6.40
O=C(COc1ccc2cc1CCc1cncc(c1)Nc1ncc(Cl)c(n1)N2)N1CCNCC1 [Example D229, tris(trifluoroacetate)] | human JAK3 (a.a. 781-1124) (Homo sapiens) | < 6.40

* * *

target: human JAK2 (a.a. 828-1132) (Homo sapiens, UniProt O60674); construct: JAK2 (a.a. 828-1132); His tag (N); made in house; host or cells: insect cells (baculovirus); assay: In vitro JAK kinase assay (HTRF, phosphorylation of a biotinylated peptide), JAK2; format: biochemical; settings: method AA1 (30 μM ATP) or AA2 (1000 μM ATP), not stated per value
Sequence (O60674 828-1132): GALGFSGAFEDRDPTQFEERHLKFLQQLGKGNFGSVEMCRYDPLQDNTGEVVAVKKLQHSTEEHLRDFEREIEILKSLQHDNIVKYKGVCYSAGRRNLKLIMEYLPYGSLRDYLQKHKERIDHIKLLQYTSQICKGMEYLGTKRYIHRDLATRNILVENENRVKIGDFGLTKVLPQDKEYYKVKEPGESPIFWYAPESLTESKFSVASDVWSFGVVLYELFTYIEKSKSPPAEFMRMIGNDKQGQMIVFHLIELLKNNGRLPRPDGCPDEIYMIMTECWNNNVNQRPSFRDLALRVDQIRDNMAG
Counter-ions that a name gives are not always drawn.

compound | value.qualifier | IC50, nM
N#Cc1ccc(N2CCC(CC(=O)Nc3ccc4cc3CCc3cncc(c3)Nc3ncc(Cl)c(n3)N4)CC2)nc1 [Example A179, tris(trifluoroacetate)] | = | 83
COc1cccc(NC(=O)N2CCC(C(=O)Nc3ccc4cc3CCc3cccc(c3)Nc3ncc(Cl)c(n3)N4)CC2)c1 [Example A38, trifluoroacetate] | = | 16
CC(C)S(=O)(=O)c1ccc2cc1Nc1nc(ncc1Cl)Nc1cccc(c1)CC2 [Example A8, trifluoroacetate] | = | 52
Cc1occc1C(=O)N1CCC(CC(=O)Nc2ccc3cc2CCc2cncc(c2)Nc2ncc(Cl)c(n2)N3)CC1 [Example A160, bis(trifluoroacetate)] | = | 271
Cc1cc(C(=O)N2CCC(CC(=O)Nc3ccc4cc3CCc3cncc(c3)Nc3ncc(Cl)c(n3)N4)CC2)n[nH]1 [Example A163, bis(trifluoroacetate)] | = | 36
CCC(=O)N1CCC(CC(=O)Nc2ccc3cc2CCc2cccc(c2)Nc2ncc(Cl)c(n2)N3)CC1 [Example A90, trifluoroacetate] | = | 5.4
O=C(CC1CCN(C(=O)c2cnoc2C2CC2)CC1)Nc1ccc2cc1CCc1cncc(c1)Nc1ncc(Cl)c(n1)N2 [Example A213, bis(trifluoroacetate)] | > | 200
O=C(Nc1ccc2cc1CCc1cccc(c1)Nc1ncc(Cl)c(n1)N2)C1CCN(C(=O)Nc2ccc(Cl)nc2)CC1 [Example A40, bis(trifluoroacetate)] | = | 15
Cc1cc(C(=O)N2CCC(CCC(=O)Nc3ccc4cc3CCc3cccc(c3)Nc3ncc(Cl)c(n3)N4)CC2)no1 [Example A124, trifluoroacetate] | = | 2.5
Cc1cc(N2CCOCC2)c2cc1Nc1ncc(Cl)c(n1)Nc1cccc(c1)CC2 [Example A6, trifluoroacetate] | = | 8.7
Cc1oncc1S(=O)(=O)N1CCC(CC(=O)Nc2ccc3cc2CCc2cncc(c2)Nc2ncc(Cl)c(n2)N3)CC1 [Example A200, bis(trifluoroacetate)] | = | 101
Cc1ccccc1NC(=O)N1CCC(CC(=O)Nc2ccc3cc2CCc2cncc(c2)Nc2ncc(Cl)c(n2)N3)CC1 [Example A149, bis(trifluoroacetate)] | = | 3.1
CSc1ccccc1NC(=O)N1CCC(C(=O)Nc2ccc3cc2CCc2cccc(c2)Nc2ncc(Cl)c(n2)N3)CC1 [Example A39, trifluoroacetate] | = | 36
